# Tested on: CCRIS mutagenicity, Ames/micronucleus/aberration tests
# assay: CCRIS mutagenicity studies
# measurementParameters: Test System: AMES SALMONELLA TYPHIMURIUM; Strain/Indicator: TA100; Metabolic Activation: S-9; Method: STANDARD PLATE
Activity calls are given as the source filed them. No rule for the calls is given here.
Allowed answers: true (active), false (inactive)

O=P1(N(CCCl)CCCl)NCCCO1 (stereo not given) ... true
COC(=O)c1ccccc1C(=O)OC ... false
O=[N+]([O-])C1=Cc2cccc3cccc(c23)O1 ... false
CNNCc1ccc(C(=O)NC(C)C)cc1 ... false

query: What call does the record list for `CCCC(c1cc(C(C)(C)C)c(O)cc1C)c1cc(C(C)(C)C)c(O)cc1C` ?
result: false

----------
# System: CCRIS mutagenicity, Ames/micronucleus/aberration tests
# assay: CCRIS mutagenicity studies
# measurementParameters: Test System: AMES SALMONELLA TYPHIMURIUM; Strain/Indicator: TA1535; Metabolic Activation: RAT, LIVER, S-9, AROCLOR 1254; Method: STANDARD PLATE
Active and inactive are the calls of the source. How the calls were made is not given here.
Allowed answers: T (active), F (inactive)

CNC(=O)Oc1ccccc1 ... F
O=c1oc2cc(O)ccc2c2oc3cc(O)ccc3c12 ... F
CC(=O)Nc1ccc(OC(=O)c2ccccc2OC(C)=O)cc1 ... F
C[C@]12CC[C@@H](OC(=O)/C=C/c3cccc(N(CCCl)CCCl)c3)C[C@@H]1CC[C@@H]1[C@@H]2CC[C@]2(C)NC(=O)CC[C@@H]12 ... T
CCOc1ccc(NC(C)=O)cc1 ... F
NC(=O)N/N=C/C(=O)O ... F

query: What call does the record list for `CC(C)CCCCCCOC(=O)CCCCC(=O)OCCCCCCC(C)C` ?
result: F

query: What call does the record list for `O.[Al+3].[Al+3].[Na+].[Na+].[O-2].[O-2].[O-2].[O-2].[O-2].[O-2].[Si+4]` ?
result: F

----------
# Tested on: CCRIS mutagenicity, Ames/micronucleus/aberration tests
# assay: CCRIS mutagenicity studies
# measurementParameters: Test System: AMES SALMONELLA TYPHIMURIUM; Strain/Indicator: TA98; Metabolic Activation: NONE; Method: PREINCUBATION
# From the text: The CCRIS database contains chemical records with carcinogenicity, mutagenicity, tumor promotion, and tumor inhibition test results. It was developed by the National Cancer Institute (NCI). Data are derived from studies cited in primary journals, current awareness tools, NCI reports, and other sources. Test results have been reviewed by experts in carcinogenesis and mutagenesis. CCRIS provides historical information from the years 1985 - 2011. It is no longer updated. […]
Activity calls are given as the source filed them. The rule behind the calls is not given here.
readoutName: mutagenic call

Check out these entries, answers already filled in.
Cc1ccc(N=[N+]([O-])c2ccc(C)c(N)c2)cc1N ... inactive; negative
OCCCCCl ... inactive; negative
CCC(=O)OCc1cccc([N+](=O)[O-])c1 ... inactive; negative
CC(C)Br ... inactive; negative
CN=C=O ... inactive; negative
c1ccc2c(c1)ccc1ccccc12 ... inactive; negative
O=C(Cl)c1ccccc1Cl ... inactive; negative
CCCCCCC(O)C/C=C\CCCCCCCC(=O)OCC(COC(=O)CCCCCCC/C=C\CC(O)CCCCCC)OC(=O)CCCCCCC/C=C\CC(O)CCCCCC (stereo unspecified) ... inactive; negative
O[C@H]([C@H](O)[C@@H](O)CBr)[C@H](O)CBr ... inactive; negative
O=S(=O)(O)OOS(=O)(=O)O ... inactive; negative

Report mutagenic call for each item below.
1. O[C@@H]1[C@@H]2O[C@@H]2C=C[C@H]1O
2. O.O.O.O.O.[Cd+2].[Cd+2].[Cl-].[Cl-].[Cl-].[Cl-]
3. COC(=O)c1ccccc1C(=O)OC
4. CNC(=O)c1ccccc1
5. [Cl][Ga]([Cl])[Cl]
6. [Cl][Pt-2]([Cl])([Cl])([Cl])([Cl])[Cl]

result:
["inactive; negative", "inactive; negative", "inactive; negative", "inactive; negative", "inactive; negative", "inactive; negative"]

Report mutagenic call for each item below.
1. CCCCN
2. Cc1cccc2nc3c(ccc4ccccc43)cc12
3. Cc1nc(N)nc(N)n1
4. CCN
5. FC(F)(F)c1cccc(Cl)c1

result:
1: inactive; negative; 2: inactive; negative; 3: inactive; negative; 4: inactive; negative; 5: inactive; negative

----------
# System: CCRIS mutagenicity, Ames/micronucleus/aberration tests
# assay: CCRIS mutagenicity studies
# measurementParameters: Test System: AMES SALMONELLA TYPHIMURIUM; Strain/Indicator: TA98; Metabolic Activation: NONE; Method: PREINCUBATION
Activity calls are given as the source filed them. The rule behind the calls is not given here.
Allowed answers: active, inactive

Illustrative cases are given below, each with its answer.
O=c1c2[nH]c3ccccc3c2nnn1/N=C/c1ccc(Cl)cc1 ... active
CON ... inactive
CN(C)C(=S)N(C)C ... inactive

query: What call does the record list for `CN(C)P(=O)(N(C)C)N(C)C` ?
result: inactive

query: What call does the record list for `Cc1c(N)cccc1N=Nc1cccc(N)c1C` ?
result: inactive

query: What call does the record list for `O=[N+]([O-])/C=C/c1ccco1` ?
result: inactive

query: What call does the record list for `ClC=C(Cl)Cl` ?
result: inactive

query: What call does the record list for `COc1cccc2c1C(=O)c1c(O)c3c(c(O)c1C2=O)C[C@@](O)(C(C)=O)C[C@@H]3O[C@H]1C[C@H](N)[C@H](O)[C@H](C)O1` ?
result: active

query: What call does the record list for CC1(C)CC(N=C=O)CC(C)(CN=C=O)C1 (centres undefined) ?
result: inactive

----------
# System: CCRIS mutagenicity, Ames/micronucleus/aberration tests
# assay: CCRIS mutagenicity studies
# measurementParameters: Test System: AMES SALMONELLA TYPHIMURIUM; Strain/Indicator: TA98; Metabolic Activation: NONE; Method: STANDARD PLATE
Calls of active or inactive are those of the source. The rule behind the calls is not given here.
Allowed answers: yes (1) (active), no (0) (inactive)

O=C(c1ccc([N+](=O)[O-])cc1)n1ncc(Cl)c(Cl)c1=O ... no (0)

query: What call does the record list for CC(O)CN(C)c1ccc(NN)nn1 (configuration not stated) ?
result: yes (1)

query: What call does the record list for `CC(=O)Nc1ccc2[nH]c3ccccc3c2c1[N+](=O)[O-]` ?
result: yes (1)

query: What call does the record list for `Cc1cc2c(C(C)C)c(O)c(O)c(C=O)c2c(O)c1-c1c(C)cc2c(C(C)C)c(O)c(O)c(C=O)c2c1O` ?
result: no (0)

query: What call does the record list for `O=[N+]([O-])C1=Cc2cccc3cccc(c23)O1` ?
result: no (0)

query: What call does the record list for `CC(C)C(=O)N(O)c1ccc(Cl)cc1` ?
result: no (0)

query: What call does the record list for `O=[N+]([O-])c1cccc2ccccc12` ?
result: yes (1)

query: What call does the record list for `CNc1ncn(C)c1C(=O)N(C)N=O` ?
result: no (0)

query: What call does the record list for `O=c1oc2cc(O)ccc2c2oc3cc(O)ccc3c12` ?
result: no (0)

query: What call does the record list for `OCc1ccc2c3c(cccc13)-c1ccccc1-2` ?
result: no (0)

----------
# Tested on: CCRIS mutagenicity, Ames/micronucleus/aberration tests
# assay: CCRIS mutagenicity studies
# measurementParameters: Test System: AMES SALMONELLA TYPHIMURIUM; Strain/Indicator: TA100; Metabolic Activation: HAMSTER, LIVER, S-9, AROCLOR 1254; Method: STANDARD PLATE
# Excerpt: The CCRIS database contains chemical records with carcinogenicity, mutagenicity, tumor promotion, and tumor inhibition test results. It was developed by the National Cancer Institute (NCI). Data are derived from studies cited in primary journals, current awareness tools, NCI reports, and other sources. Test results have been reviewed by experts in carcinogenesis and mutagenesis. CCRIS provides historical information from the years 1985 - 2011. It is no longer updated. […]
Active and inactive are the calls of the source. How the calls were made is not given here.
Allowed answers: active, inactive

Illustrative cases are given below, each with its answer.
COc1ccccc1/C=C/C=O ... inactive
[Cl][Cr]([Cl])[Cl] ... inactive
CCOC(=O)C(Cl)C(C)=O (configuration not stated) ... inactive
CC(C)CCCCCCOC(=O)CCCCC(=O)OCCCCCCC(C)C ... inactive
c1ccc2nccnc2c1 ... inactive

query: What call does the record list for `Nc1n[nH]c(=S)s1` ?
result: inactive

query: What call does the record list for `Nc1ccc(S(N)(=O)=O)cc1` ?
result: inactive

----------
# System: CCRIS mutagenicity, Ames/micronucleus/aberration tests
# assay: CCRIS mutagenicity studies
# measurementParameters: Test System: AMES SALMONELLA TYPHIMURIUM; Strain/Indicator: TA100; Metabolic Activation: HAMSTER, LIVER, S-9, AROCLOR 1254 (10%); Method: PREINCUBATION
# Excerpt: The CCRIS database contains chemical records with carcinogenicity, mutagenicity, tumor promotion, and tumor inhibition test results. It was developed by the National Cancer Institute (NCI). Data are derived from studies cited in primary journals, current awareness tools, NCI reports, and other sources. Test results have been reviewed by experts in carcinogenesis and mutagenesis. CCRIS provides historical information from the years 1985 - 2011. It is no longer updated. […]
Activity calls are given as the source filed them. No rule for the calls is given here.
Allowed answers: yes (1) for active, no (0) for inactive

CCCNCCC ... no (0)
Cc1cccc(C#N)c1 ... no (0)
CCCCN ... no (0)
CC(C#N)CCC#N (stereo unspecified) ... no (0)
CON ... no (0)
CCCCCCCCOP(=O)(OCCCCCCCC)OCCCCCCCC ... no (0)

query: What call does the record list for CC(O)CCl (stereo unspecified) ?
result: no (0)
